Measured Percent Inhibition (inhibitory activity on leukotrienes), listed per entry.
# Tested on: excised bronchi of guinea pigs by the action of leukotriene D4
# Procedure summary: Inhibitory activity on leukotrienes (contraction induced by leukotriene D4 in excised guinea pig bronchi)
# Measurement context: Conc. 10^-5 M, treatment before 10 minutes
A complete answer gives the number followed by the unit.

# annotated cases, reported Percent Inhibition (inhibitory activity on leukotrienes) shown
>>> reported_result("COc1ccc(C=CC(C)=C2SC(=S)NC2=O)cc1OC (single isomer, unassigned) [Isomer B of Example 1]")
"82.4%"
>>> reported_result("CCOC(=O)CCC(C=Cc1ccc(OC)c(OC)c1)=C1SC(=S)NC1=O")
"98.1%"
>>> reported_result("CCCC(C=Cc1ccc(C(=O)O)cc1)=C1SC(=S)NC1=O (single isomer, unassigned) [Isomer B of Example 17]")
"79.8%"
>>> reported_result("COc1ccc(C=CC(CCCC(=O)O)=C2SC(=S)NC2=O)cc1OC (single isomer, unassigned) [Isomer B of Example 19]")
"85.1%"
>>> reported_result("CCOC(=O)CCCC(C=Cc1ccc(OC)c(OC)c1)=C1SC(=S)NC1=O")
"90.5%"
>>> reported_result("COc1ccc(CCC(C)=C2SC(=S)NC2=O)cc1OC (single isomer, unassigned) [Isomer B of Example 12]")
"97.9%"
>>> reported_result("COc1ccc(CCC(C)=C2SC(=S)NC2=O)cc1OC (single isomer, unassigned) [Isomer A of Example 12]")
"100.0%"

Shift focus to the following entry.
input: Please give the measured Percent Inhibition (inhibitory activity on leukotrienes) for this compound: CCCC(C=Cc1ccc(C(=O)O)cc1)=C1SC(=S)NC1=O (single isomer, unassigned) [Isomer A of Example 17]
output: 84.7%
